// endpoint IC50 / system UniProt P35968
Sequence (P35968 20-1356): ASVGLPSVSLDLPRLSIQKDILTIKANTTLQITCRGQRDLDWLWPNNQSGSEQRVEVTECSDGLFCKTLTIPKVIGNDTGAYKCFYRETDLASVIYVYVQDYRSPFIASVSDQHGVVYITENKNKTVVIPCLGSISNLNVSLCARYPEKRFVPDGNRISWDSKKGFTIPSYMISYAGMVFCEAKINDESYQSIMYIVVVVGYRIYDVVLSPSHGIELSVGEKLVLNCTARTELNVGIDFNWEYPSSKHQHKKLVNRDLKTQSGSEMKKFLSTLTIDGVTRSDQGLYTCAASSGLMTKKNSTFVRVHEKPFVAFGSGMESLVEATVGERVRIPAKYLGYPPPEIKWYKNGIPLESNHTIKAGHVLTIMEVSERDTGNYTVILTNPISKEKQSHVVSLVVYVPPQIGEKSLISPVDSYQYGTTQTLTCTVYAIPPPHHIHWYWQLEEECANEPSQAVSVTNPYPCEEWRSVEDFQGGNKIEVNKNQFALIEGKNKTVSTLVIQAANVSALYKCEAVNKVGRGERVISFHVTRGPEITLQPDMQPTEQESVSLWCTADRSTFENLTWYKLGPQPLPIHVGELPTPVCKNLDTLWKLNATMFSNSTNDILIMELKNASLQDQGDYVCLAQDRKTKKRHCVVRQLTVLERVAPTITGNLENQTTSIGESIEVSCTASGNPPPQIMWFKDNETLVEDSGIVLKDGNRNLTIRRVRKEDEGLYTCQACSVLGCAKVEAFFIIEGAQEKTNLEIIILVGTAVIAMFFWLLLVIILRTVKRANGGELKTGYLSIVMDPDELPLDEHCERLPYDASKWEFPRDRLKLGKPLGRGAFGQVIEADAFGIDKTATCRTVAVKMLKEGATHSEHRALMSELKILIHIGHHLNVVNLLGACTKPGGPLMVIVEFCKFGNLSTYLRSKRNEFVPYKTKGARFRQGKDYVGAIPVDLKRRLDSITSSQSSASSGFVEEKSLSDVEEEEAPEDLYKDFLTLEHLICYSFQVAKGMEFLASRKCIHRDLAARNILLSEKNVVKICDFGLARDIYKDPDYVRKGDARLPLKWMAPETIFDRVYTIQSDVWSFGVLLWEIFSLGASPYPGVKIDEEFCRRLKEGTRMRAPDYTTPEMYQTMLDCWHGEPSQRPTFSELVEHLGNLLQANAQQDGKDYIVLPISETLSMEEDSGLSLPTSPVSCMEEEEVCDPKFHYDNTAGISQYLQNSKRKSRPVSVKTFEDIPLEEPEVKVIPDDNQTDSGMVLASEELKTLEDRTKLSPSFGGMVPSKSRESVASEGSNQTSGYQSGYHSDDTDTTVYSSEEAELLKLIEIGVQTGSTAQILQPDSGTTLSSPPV
// note: answer is a bare numeric in nM

Examples with answers:
INSERT INTO results (molecule, measurednumber) VALUES
  ('O=C1Nc2ccccc2C1=Nc1ccc(-c2n[nH]c(=S)o2)cc1 [Compound 15a]', 180),
  ('O=C1Nc2ccccc2C1=Nc1ccc(C(=O)NNC(=S)Nc2ccccc2)cc1 [Compound 17a]', 78),
  ('COc1ccc(C=NNC(=O)c2ccc(N=C3C(=O)Nc4ccccc43)cc2)cc1 [Compound 10e]', 358);

Task item: Look up IC50 with UniProt P35968 for this molecule: O=C1Nc2ccc(F)cc2C1=Nc1ccc(C(=O)NN=Cc2ccc(Br)cc2)cc1 [Compound 10g]
Reply: 87
